biological target: BRD9 bromodomain (Flag-BRD9 P133-K239) (Homo sapiens (Human)); test: BRD9 bromodomain TR-FRET competition binding assay; conditions: Table 4; 3 nM Flag-BRD9, 3.75 nM biotinylated ligand, 90 minutes at room temperature
Sequence (Q9H8M2 133-239): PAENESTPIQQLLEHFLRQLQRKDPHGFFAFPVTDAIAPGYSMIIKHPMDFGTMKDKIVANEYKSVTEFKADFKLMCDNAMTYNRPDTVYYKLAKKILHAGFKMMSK
pIC50: −log10 of the molar value.
metric.name: pIC50

INSERT INTO measurements (molecule, measurement) VALUES
  ('COc1cc(-c2cn(C)c(=O)c3cnccc23)cc(OC)c1CN1CCC(COC2CCN(C(=O)CCOCCOc3cccc4c3C(=O)N(C3CCC(=O)NC3=O)C4=O)C2)CC1 (centres unmarked)', '7.00 to 8.00'),
  ('COc1cc(-c2cn(C)c(=O)c3cnccc23)cc(OC)c1CN1CC2(CCN(C(=O)CCOCCOc3cccc4c3C(=O)N(C3CCC(=O)NC3=O)C4=O)C2)C1 (centres unmarked)', '> 8.00');
